# System Tested: T1, 4H918-bN
# T1 chain: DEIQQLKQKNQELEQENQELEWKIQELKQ
# Assay Text: two-hybrid library CCNG1;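 further: natural log of median RNA to DNA barcode read ratio; higher means stronger binding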
Observation Type: interaction score
Could you keep your reply to the number by itself?

Example binders with recorded interaction score:
{"columns": ["Binder", "Observation Type", "Obs Value"],
 "data": [
  ["DKIQQLKQENQELEQKIQELKWEIQELEQ [4H2729-bN]", "interaction score", -0.584],
  ["DEIQQLKQENQELEQKIQELKWKNQELEQ [4H687-bN]", "interaction score", -0.686],
  ["DEIQQLEQKNQELKQEIQELKWEIQELEQ [4H457-bN]", "interaction score", -1.24]
]}

[in] Would you mind telling me what interaction score value was observed for DKNQQLEQKIQELKQKIQELEWENQELEQ [4H3427-bN] ?
[out] -1.53

[in] And DENQQLEQENQELEQKIQELKWEIQELEQ [4H1193-bN] ?
[out] -1.23

[in] And DEIQQLKQEIQELEQKNQELKWKNQELEQ [4H575-bN] ?
[out] 0.56

[in] And DEIQQLEQKNQELKQEIQELEWKIQELKQ [4H454-bN] ?
[out] -0.834
